# experiment: physchem
# Format: physicochemical
# condition_description: methanol, organic solvent or mixture
observed_property: solubility thermodynamic (mg/mL)

{"molecule": "NS(=O)(=O)c1cc(C2(O)NC(=O)c3ccccc32)ccc1Cl (stereo not shown)", "recorded_number": 76.1}

###

# experiment: physchem
# Format: physicochemical
# condition_description: ethanol, organic solvent or mixture

{"compound": "NS(=O)(=O)c1cc(C2(O)NC(=O)c3ccccc32)ccc1Cl (stereo not shown)", "solubility thermodynamic": "15.5 mg/mL"}

###

# experiment: physchem
# Assay type: physicochemical
# condition_description: isopropanol, organic solvent or mixture

{"molecule": "NS(=O)(=O)c1cc(C2(O)NC(=O)c3ccccc32)ccc1Cl (stereo not shown)", "solubility thermodynamic / µg/mL": 3200}
